- target-system: T1, biotinylated recombinant human IL-12Rβ2 (human, UniProt Q99665 24-622, random biotinylated)
- T1 construct: Recombinant protein produced in-house; also called hIL-12RB2; human IL-12RB2
- T1 sequence: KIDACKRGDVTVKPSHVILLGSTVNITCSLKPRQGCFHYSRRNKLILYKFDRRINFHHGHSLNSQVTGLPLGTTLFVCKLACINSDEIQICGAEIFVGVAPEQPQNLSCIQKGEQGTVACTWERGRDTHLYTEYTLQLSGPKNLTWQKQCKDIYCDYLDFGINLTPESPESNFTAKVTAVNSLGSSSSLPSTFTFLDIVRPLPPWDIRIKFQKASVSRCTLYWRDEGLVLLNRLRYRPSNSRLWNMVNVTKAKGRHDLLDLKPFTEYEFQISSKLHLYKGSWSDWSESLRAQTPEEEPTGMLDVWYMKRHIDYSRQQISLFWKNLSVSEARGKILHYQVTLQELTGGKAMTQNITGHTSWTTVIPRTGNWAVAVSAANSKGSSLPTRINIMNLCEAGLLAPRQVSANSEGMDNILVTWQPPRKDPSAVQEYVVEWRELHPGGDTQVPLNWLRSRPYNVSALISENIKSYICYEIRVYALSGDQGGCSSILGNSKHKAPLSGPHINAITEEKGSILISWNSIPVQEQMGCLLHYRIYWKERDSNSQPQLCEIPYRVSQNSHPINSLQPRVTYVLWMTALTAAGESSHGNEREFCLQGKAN
- experiment: ELISA, P.E., biotinylated antigen
ELISA hIL-12RB2/control: recorded values
Output: the number by itself.

anti-IL-12Rβ2 VHH clone 3CAH48 (clone ID 20360) (VHH, not shown: small tags and cut ends, periplasmic extract) VHH: QVQLQESGGGLVQAGGSLRLSCAASGRTFSSYAMGWFRQGPGKEREFVAAISWSGVSTYYADSVKGRFTISRDNAKNTVYLQMNSLRPEDTAVYYCAATEGAYTVAGGSTFGYDMDYWGKGTQVTVSS | 9.56
anti-IL-12Rβ2 VHH clone 3CAHS170 (clone ID 20406) (VHH, not shown: small tags and cut ends, periplasmic extract) VHH: QVQLQESGGGLVQAGGSLRLSCVASGRTFSSYAMGWFRQGPGKEREFVAAISWSGVSIYYADSVKGRFTISRDNAKNTVYLQMNSLEPEDTAVYYCAGTEGAYTVAGGSTFGYDMDYWGKGTQVTVSS | 5.87

The reported value for anti-IL-12Rβ2 VHH clone 2CRH33 (clone ID 20363) (VHH, not shown: small tags and cut ends, periplasmic extract) VHH: QVQLQESGGGSVQPGWSLRLTCAASGFTFSTSGMHWFRQAPGKGLEWVSSISSGGGDTYYTDSVKGRITISRDNAKNTLYLQLNDLKSEDTAVYYCSKDPSGATRGQGTQVTVSS in terms of ELISA hIL-12RB2/control is 6.44

The reported value for anti-IL-12Rβ2 VHH clone 3CRH83 (clone ID 20390) (VHH, not shown: small tags and cut ends, periplasmic extract) VHH: QVQLQESGGGLVQAGGSLKLSCAASGNTFSINAMAWYRQAPGQELELVAAISDVGNTIYADSMKGRFTISRGNADNTVYLQMNSLKPEDTATYYCNAGTFYTSPGDSYYRGYDFWGQGTQVTVSS in terms of ELISA hIL-12RB2/control is 8.46
